- System name: Muscarinic acetylcholine receptor M1 (Rattus norvegicus, UniProt P08482)
- Sequence (P08482 whole entry): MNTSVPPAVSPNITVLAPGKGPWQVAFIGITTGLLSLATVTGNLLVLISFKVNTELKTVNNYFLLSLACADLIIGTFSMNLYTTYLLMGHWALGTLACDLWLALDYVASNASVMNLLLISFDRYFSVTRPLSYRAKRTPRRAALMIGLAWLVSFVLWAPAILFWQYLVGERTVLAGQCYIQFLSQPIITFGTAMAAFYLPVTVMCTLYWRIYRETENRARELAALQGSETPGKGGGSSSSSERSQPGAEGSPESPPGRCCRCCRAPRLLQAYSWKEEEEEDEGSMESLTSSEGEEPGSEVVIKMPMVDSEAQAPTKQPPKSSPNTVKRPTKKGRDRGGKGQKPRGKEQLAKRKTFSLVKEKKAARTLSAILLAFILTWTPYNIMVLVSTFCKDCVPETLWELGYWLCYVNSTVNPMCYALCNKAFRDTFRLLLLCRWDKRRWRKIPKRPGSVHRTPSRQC
- Experimental protocol: Agonist activity at rat M1 receptor expressed in CHO cells assessed as increase in calcium mobilization measured after 2.5 mins by Fluo-4-AM dye based assay
- Format: functional, cell-based
- Applied conditions: read-out: EC50
pEC50: −log10 of the molar value.
Here the recorded pEC50 is given for each entry.

Sample answers from the record:
Cn1ccc(-c2ccc(Cc3cc(C(=O)NC4CC5(COC5)C4)nc4c3ccn4C)cc2)n1    < 5.00
Cn1ccc(-c2ccc(Cc3cc(C(=O)NCC4CCOCC4)nc4c3ccn4C)cn2)n1    < 4.52

Next:
Recorded result, `Cn1ccc(-c2ccc(Cc3cc(C(=O)NC4CC5(COC5)C4)nc4c3ccn4C)cn2)n1` , pEC50: < 4.52
